Where these numbers come from: patent US10077261B2

Hi there, I'd appreciate the recorded inhibition at 10 µM for every entry that follows.
measured.on: hFASN enzyme (full length) (Homo sapiens, UniProt P49327)
Construct: 10 μL hFASN enzyme (full length, 300 ng, purified in house); made in house
Sequence (P49327 whole entry): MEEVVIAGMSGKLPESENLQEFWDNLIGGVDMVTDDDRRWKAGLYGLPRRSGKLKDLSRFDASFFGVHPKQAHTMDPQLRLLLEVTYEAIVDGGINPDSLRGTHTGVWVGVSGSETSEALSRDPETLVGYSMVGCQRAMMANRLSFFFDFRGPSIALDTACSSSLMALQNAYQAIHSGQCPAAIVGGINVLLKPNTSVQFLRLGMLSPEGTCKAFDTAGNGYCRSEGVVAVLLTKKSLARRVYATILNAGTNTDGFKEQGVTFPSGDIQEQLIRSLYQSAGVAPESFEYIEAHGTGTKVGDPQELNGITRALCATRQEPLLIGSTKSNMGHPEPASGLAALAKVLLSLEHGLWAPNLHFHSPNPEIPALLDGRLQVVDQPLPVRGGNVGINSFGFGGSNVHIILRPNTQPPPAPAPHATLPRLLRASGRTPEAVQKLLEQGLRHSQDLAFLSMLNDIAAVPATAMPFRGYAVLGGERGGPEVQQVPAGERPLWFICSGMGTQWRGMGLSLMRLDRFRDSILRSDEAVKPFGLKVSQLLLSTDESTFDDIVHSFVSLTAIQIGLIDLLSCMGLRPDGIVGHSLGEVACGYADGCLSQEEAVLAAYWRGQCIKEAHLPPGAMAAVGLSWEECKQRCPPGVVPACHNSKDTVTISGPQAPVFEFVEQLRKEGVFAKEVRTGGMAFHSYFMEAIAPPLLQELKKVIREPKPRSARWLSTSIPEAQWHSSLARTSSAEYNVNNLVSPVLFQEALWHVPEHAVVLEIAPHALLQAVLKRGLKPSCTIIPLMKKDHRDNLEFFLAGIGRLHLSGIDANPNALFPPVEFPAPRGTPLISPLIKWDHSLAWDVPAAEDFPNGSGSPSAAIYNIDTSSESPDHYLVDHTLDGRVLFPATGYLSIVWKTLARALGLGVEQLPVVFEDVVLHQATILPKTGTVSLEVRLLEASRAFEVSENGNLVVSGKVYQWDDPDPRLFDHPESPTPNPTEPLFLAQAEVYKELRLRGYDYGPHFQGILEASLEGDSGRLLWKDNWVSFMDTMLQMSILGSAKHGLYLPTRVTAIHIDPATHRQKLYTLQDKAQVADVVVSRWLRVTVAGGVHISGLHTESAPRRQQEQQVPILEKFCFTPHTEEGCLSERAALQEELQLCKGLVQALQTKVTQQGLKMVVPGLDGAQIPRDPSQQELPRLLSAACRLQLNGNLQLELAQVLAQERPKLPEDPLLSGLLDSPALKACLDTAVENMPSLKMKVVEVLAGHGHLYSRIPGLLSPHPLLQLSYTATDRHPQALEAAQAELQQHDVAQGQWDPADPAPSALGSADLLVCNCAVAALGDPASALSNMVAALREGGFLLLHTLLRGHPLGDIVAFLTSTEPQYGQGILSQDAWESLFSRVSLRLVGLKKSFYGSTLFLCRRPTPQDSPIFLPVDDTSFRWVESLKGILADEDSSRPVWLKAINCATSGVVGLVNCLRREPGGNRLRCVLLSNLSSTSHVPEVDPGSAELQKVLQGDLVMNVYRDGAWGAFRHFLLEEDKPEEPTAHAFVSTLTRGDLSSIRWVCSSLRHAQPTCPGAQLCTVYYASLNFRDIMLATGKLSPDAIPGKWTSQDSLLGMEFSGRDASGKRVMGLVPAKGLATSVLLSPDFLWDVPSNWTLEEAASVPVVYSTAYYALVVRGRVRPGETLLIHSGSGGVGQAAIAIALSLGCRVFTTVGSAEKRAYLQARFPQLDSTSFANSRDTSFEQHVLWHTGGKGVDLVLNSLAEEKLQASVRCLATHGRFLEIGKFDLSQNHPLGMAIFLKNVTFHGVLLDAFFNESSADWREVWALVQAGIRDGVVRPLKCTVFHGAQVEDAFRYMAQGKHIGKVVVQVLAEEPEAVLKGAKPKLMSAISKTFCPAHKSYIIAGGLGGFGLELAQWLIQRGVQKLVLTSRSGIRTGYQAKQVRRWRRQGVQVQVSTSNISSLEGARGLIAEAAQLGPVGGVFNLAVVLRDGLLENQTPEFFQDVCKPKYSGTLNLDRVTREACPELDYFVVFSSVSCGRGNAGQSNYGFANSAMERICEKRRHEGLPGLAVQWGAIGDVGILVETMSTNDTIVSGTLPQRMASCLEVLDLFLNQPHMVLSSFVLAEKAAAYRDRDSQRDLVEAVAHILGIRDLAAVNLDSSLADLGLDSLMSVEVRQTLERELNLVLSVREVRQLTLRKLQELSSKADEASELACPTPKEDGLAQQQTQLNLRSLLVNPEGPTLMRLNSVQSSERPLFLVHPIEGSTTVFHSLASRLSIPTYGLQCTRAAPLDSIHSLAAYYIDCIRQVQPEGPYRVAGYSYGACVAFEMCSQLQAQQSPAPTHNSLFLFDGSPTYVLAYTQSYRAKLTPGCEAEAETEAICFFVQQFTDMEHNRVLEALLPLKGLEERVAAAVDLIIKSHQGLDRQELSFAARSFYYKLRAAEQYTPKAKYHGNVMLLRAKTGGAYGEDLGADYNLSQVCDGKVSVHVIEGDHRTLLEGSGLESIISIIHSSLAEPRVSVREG
assay.details: Fatty Acid Synthase (FASN) inhibition scintillation proximity assay
Type: biochemical
test.conditions: read-out: Human FASN % inhibition @ 10 μM, 10 μM test compound
State just the number; it will be interpreted in %.

Exercise: Suppose we examine the molecule Cc1ccc2ccc(-c3ccc(C4=NC5(CC5)C(=O)N4CC4CN(C(=O)C5CC5)C4)c(F)c3)cc2n1 ; what inhibition at 10 µM value has been reported?
Solution: 82

Exercise: Looking for the measured inhibition at 10 µM of Cc1cc(-c2ccc3c(c2)ncn3C)ccc1C1=NC2(CC2)C(=O)N1CC1CN(C(=O)C2(O)CC2)C1 , can you help?
Solution: 100

Exercise: // lookup inhibition at 10 µM for Cn1nccc1-c1ccc(-c2ccc(C3=NC4(CC4)C(=O)N3C[C@@H]3CCN(C(=O)C4CC4)C3)cc2)cc1
Solution: 69

Exercise: Any idea what inhibition at 10 µM was measured for COc1cccc2ccc(-c3ccc(C4=NC5(CC5)C(=O)N4CC4CN(C(=O)C5CC5)C4)c(F)c3)cc12 ?
Solution: 100

Exercise: Form field: reported inhibition at 10 µM of O=C(C1CC1)N1CC[C@@H](CN2C(=O)C3(CCCC3)N=C2c2ccc(-c3nc4ccccc4o3)cc2)C1
Solution: 96.2

Exercise: Data request, read-out inhibition at 10 µM, for Cn1ncc2cc(-c3ccc(C4=NC5(CCOC5)C(=O)N4C[C@@H]4CCN(C(=O)[C@H]5CCCO5)C4)cc3)ccc21 (stereo partly shown)
Solution: 99

Exercise: Name the recorded inhibition at 10 µM for CC(=O)c1ccc(-c2ccc(C3=NC4(CCCC4)C(=O)N3C[C@@H]3CCN(C(=O)C4CC4)C3)c(F)c2)cc1 .
Solution: 79
